- Tested on: IGROV1 ovarian
- runDescription: NCI tumour cell line growth inhibition, 48 h
Below, each of the molecules is paired with its reported TGI value.

Cc1ccc(C)c(NC(=O)CC2C(=O)Nc3ccccc3S2(=O)=O)c1 (stereo not drawn)	> 100 µM

Please look up its TGI: COc1ccc(C(=O)c2cc(OC)c(OC)c(OC)c2)cc1/C=C/C(=O)c1ccc(O)cc1
34.8 µM

Now try CN(C)CCCNC(=O)c1cc(NC(=O)c2cc(NC(=O)CCCN3c4ccccc4C=Cc4ccccc43)cn2C)cn1C .
8.8 µM

Queued: COc1cccc2c1C(=O)c1c(O)c3c(c(O)c1C2=O)CC(O)(C(C)=O)CC3OC1CC([N+](C)(C)C)C(O)C(C)O1 (stereo not drawn)
> 100 µM

Same for COc1cc(/C=C2\CC(C)CC3C2=NN(c2ccccc2)C3c2cc(OC)c(OC)c(OC)c2)cc(OC)c1OC (stereo not drawn)
> 100 µM
